experiment: yeast display, Sf9 membrane polyspecificity reagent, FACS + sequencing; frameworks hold sequencing errors
measurementName: polyreactivity (PSR sort gate)

QVQLVESGGVLVQAGGSLRLSCAPSGYIYSKYAMGWYRQAPGKERELVASITGRGSRTYYADSVKGRFTISRDNAKNTVYLQMNSLKPEDIAVYFCAADWYGQKTSNRWYFRPGYDYWGQGTQVTVSS | high polyreactivity
EEELVESGGGLVQAGGSSLRLSCAASGRTFSTNVMGWYRQAPGKERELVAAINRSGGSTYYADSVKGRFTISRDNAKNTVYLQMNSLKPEDTAVYYCAKRDGVGNHEFDYWGQGTQVTVSS | low polyreactivity
QVQLVESGGGLVQAGGSLRLSCAASGSTIYRYAMGWYRQAPGKERELVATISRTGARTNYADSVKGRFTISRDNAKNTVYLQMNSLKPEDTAVYYCAASAPYIYYWGQGTQVTVSS | high polyreactivity
QVQLVESGGGLVQAGGSLRLSCAASGFIFGQYAMGWYRQAPGKERELVAAISWSGGRTNYADSVKGRFTISRDNAKNTVYLQMNSLKPEDTAVYYCAARKGKYPQYPYGYWGQGTQVTVSA | high polyreactivity
QVQLVESGGGLVKAGGSLRLSCAASGIIMSYYVMGWYIQAPGKERELVAAISLRGGTTYYADSEKGRFTISRDNAKNTVYLQKNSLKPEDTAVYYCAAQRPGFGYEYDYWGQGTQVTVSS | high polyreactivity
QVQLVESGGGLVQAGGSLRLSCAASGFIFRTYAMGWYRQAPGKERDLVAAISWRGGSTYYADSVKGRFTISRDNAKNTVYLQMNSLKPEDTAVYYCAKDTTRGVYRSWPKDMDYWGQGTQVTVSS | low polyreactivity
QVQLVESGGGLVQAGGSLRLSCAASGSIFRLNAMGWYRQARGKERELVARIDSSGSTNYTDSVKGRFTISRDNAKNTVYLQMNSLKPEDTAVYYCAAGLVLIVGMDSWGQGTQVTVSS | low polyreactivity
QVQLVESGGGLVQAGGSLRLSCAASGSTLYYNAMGWFRQAPGKERELVARISRSGGSTYADSVKGRFTISRDNAKNTVYLQMNMLKRDDTAVYYCNADAYGTPEFTSYAVRYDYWGQGTQVTVSS | low polyreactivity
QVQLVESGGGLVQAGGSLRLSCAASGFTFGSYAMGWYRQAPGTERELVAAISCSGGSTYYADSVKGRFTISRDNAKNTVYLQMNSLKPEDTAVYYCAVRYPLYRMDYWGQGTQVTVSS | high polyreactivity
QVQLVESGGGLVQAGGSLRLSCAASGRTFARYAMGWYRQAPGKERELVASNRRGTSTNYADSVKGRFTISRDNAKNTVYLQMNSLKPEDTAVYYCAARVGTQGDHGDYWGQGTQVTVSS | high polyreactivity
QVQLVESGGGLVQAGGSLRLSCAASGITFSSYAMGWSRQAPGKERELVAAITSRGGSTYYADSVKGRFTISRDNAKNTVYLQMNSLKPEDTAVYYCNASRVRRWNDYYKKFDYWGQGTQVTVSS | high polyreactivity
QVQLVESGGGLVQAGGSLRLSCSASGYIYQYNSMGWYRQAPGKERELVAANSRGGRTNYADSVKGRFTISRDNAKNTVYLQMNSLKPEDTEVYYCAAKRPWGYYPWSTQTGDYWGQGTQVTVSS | high polyreactivity
QVQLVESGGGLVQAGGSLRLSSAASGNIFTYNAMGWYRPARGTERELVAAISSGGSTNYADSVKGRFTISRHNAKNTVYLQLNSLKPEDTAVYYCAADLTISYSQEYYYWGQGTQETVSS | low polyreactivity
QVQLVESGGGLVQAGGSLRLSCAASGLTFWKYTMGWYRQAPGKERELVAAISISGTNTYYADSVKGRFTISRDNAKNTVYLQMNSLKPEDTAVYYCAAVRGYPPTNYYYWGQGTQVSVSS | high polyreactivity
QVKLQGSGGGLAQAGDSLRLSCAASGTIFSEYNNGLVSPGAGQRTRTCCRYWCWGNTYYADSAKGRFTTSRDNAKNSVYLQKNSLKPEDTAVYYCAFNLPYPSRHIYRGQGTQVTVSS | high polyreactivity
QVQLVESGGGLVQAGGSLRLSCSASGSIFRVYGMGWYRQAPGKERELVAAITWSGGSTYYADSVKGRFTISRDNAQNTVYLQMNSLKPEDTAVYYCAARARPRYYRQPYDYLGQGTQVTVSS | high polyreactivity
QVQIVESGGGLVQAGGSLRLSCAPSGRIYGPYAIGLYRQEPGKERELDAAIRSGGSTNYADSVKGRFTISRDNAKNTVYLQMNSLNPEDTAVYYCNAVRHTYGYYSWGQGTQVTVSS | high polyreactivity
QVELVESGGGLVQAGGSLRLSCAASGFTFVSYAMGWYRQAPGKEREFVATISKRGGSTYYADSVKGRFTISRDNAKNTVYLQMNSLKPEDTAVYYCAVRYPYYSYRAKLGYCGQGTQVTVSS | high polyreactivity
HVQLVESGGGLVHAGGSLRLRCAASGFTFTTYAMGWYRQAPWKEMELVARISRRSGSTYYADSVKGRFTLSRDNAKNTVYLQMNSLKPDDTAVYYCNADVDRSTTIFDYWGQGTQVTVSS | high polyreactivity
QVQLVESGGGLVQAGGSLRLSCAASGFILGTYAMGWYRQATGKERELVADISWSVGSTYYADSVKGRFTISRDNAKNTVYLQMISLKPEDTAVYYCNADGYTLWYEYDYWGQGTQVTVSS | low polyreactivity
QVQLVESGGGLVQAGGSLRLSCAASGITFWANAMGWYRQAPGKERELVASIRSSGGSTYYADSVKGRFTISRDNAKNTVYLQMNSLKPEDTAVYYCNARLGPLYVYRQYDSWGQGTQVTVSS | low polyreactivity
